biological target: UniProt P28335; test: Calcium mobilization (Ca++ flux) assay, agonist mode, 5-HT2C
Sequence (P28335 33-458): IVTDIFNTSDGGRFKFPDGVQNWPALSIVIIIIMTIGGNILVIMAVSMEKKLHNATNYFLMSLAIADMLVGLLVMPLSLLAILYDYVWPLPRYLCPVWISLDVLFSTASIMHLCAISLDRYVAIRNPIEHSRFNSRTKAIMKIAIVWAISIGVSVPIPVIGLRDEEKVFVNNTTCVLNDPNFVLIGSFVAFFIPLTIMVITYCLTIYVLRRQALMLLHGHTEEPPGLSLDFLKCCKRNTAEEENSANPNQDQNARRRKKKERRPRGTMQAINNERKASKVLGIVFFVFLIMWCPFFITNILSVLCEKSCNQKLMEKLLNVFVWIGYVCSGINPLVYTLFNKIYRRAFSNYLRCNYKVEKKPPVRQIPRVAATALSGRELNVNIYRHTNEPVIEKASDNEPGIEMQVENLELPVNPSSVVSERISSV
assay.endpoint: pEC50
Please keep in mind that pEC50 is minus log10 of the molar concentration; only the number is needed.

Q) Please tell me: pEC50 of COC(=O)C1CCCN1CCc1c[nH]c2ccccc12 (centres unmarked) [Compound 1, methyl (2-(1H-indol-3-yl)ethyl)prolinate] , system UniProt P28335?
A) 5.38

Q) Please tell me: pEC50 of OCC1CCCN1CCc1c[nH]c2ccccc12 (centres unmarked) [Compound 3] , system UniProt P28335?
A) 6.30

====

Molecular target: 5-HT2B (Homo sapiens, UniProt P41595)
Sequence (P41595 whole entry): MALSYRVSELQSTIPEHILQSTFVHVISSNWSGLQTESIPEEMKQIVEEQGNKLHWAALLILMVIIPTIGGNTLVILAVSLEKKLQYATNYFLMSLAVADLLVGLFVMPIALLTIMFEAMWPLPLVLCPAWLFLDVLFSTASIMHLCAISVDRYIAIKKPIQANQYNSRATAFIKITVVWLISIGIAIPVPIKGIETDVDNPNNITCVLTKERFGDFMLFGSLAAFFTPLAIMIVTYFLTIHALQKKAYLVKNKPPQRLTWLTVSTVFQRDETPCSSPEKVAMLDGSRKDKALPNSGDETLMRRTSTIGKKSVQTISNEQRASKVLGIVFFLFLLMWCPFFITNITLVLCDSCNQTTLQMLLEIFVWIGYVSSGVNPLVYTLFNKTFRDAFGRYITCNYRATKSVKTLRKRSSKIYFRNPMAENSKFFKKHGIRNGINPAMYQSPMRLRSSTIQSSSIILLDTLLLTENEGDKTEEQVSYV
Assay: IPOne (IP1 HTRF) assay, CHO-K1 cells expressing human 5-HT2B
Type: cell-based
Set-up: expressed in transfected cells; host or cells: CHO-K1
Conditions: CHO-K1; @30 uM; percentage of reference agonist α-Me-5-HT at its EC100
Method: IPOne assays were performed using stably-transfected cell lines (CHO-K1) expressing human 5-HT2A or 5-HT2B receptors. Upon activation of these receptors, Gq-mediated myo-Inositol 1 phosphate (IP1) production is detected by a Homogeneous Time-Resolved Fluorescence (HTRF) competitive immunoassay, whereby an IP1 analog coupled to a fluorophore (acceptor) competes with endogenous IP1 for binding to a labeled anti-IP1 antibody (donor). […]
Please note: t applies when activation at 30 µM is 80% or greater, and f applies otherwise.

Q) hey, is activation at 30 µM for this one >= 80%? "OC[C@H]1CCN1CCc1c[nH]c2ccccc12"
A) f

Q) hey, is activation at 30 µM for this one >= 80%? "COC(=O)[C@]1(C)CCCN1CCc1c[nH]c2ccccc12"
A) f

Q) hey, is activation at 30 µM for this one >= 80%? "COc1cccc2[nH]cc(CCN3CCC[C@H]3CO)c12"
A) t

Q) hey, is activation at 30 µM for this one >= 80%? "C[C@H](O)[C@@H]1CCCN1CCc1c[nH]c2ccccc12"
A) t

Q) hey, is activation at 30 µM for this one >= 80%? OCC1CCCN1CCc1c(Br)[nH]c2ccc(F)cc12 (stereo not drawn)
A) t

Q) hey, is activation at 30 µM for this one >= 80%? "COC(=O)[C@H]1CCCN1CCc1c[nH]c2ccccc12"
A) f

Q) hey, is activation at 30 µM for this one >= 80%? "OC[C@@H]1CCCN1CCc1c[nH]c2ccc(O)cc12"
A) t

Q) hey, is activation at 30 µM for this one >= 80%? "CC(C)(O)[C@@H]1CCCN1CCc1c[nH]c2ccccc12"
A) t

Q) hey, is activation at 30 µM for this one >= 80%? COc1ccc(Br)c2[nH]cc(CCN3CCCC3CO)c12 (stereo not drawn)
A) f

Q) hey, is activation at 30 µM for this one >= 80%? NCC1CCCN1CCc1c[nH]c2ccccc12 (stereo not drawn)
A) t

Q) hey, is activation at 30 µM for this one >= 80%? "OC[C@@H]1CCCN1CCc1c[nH]c2ncccc12"
A) f

Q) hey, is activation at 30 µM for this one >= 80%? "COC(=O)[C@@H]1CCCN1CCc1c[nH]c2ncccc12"
A) f

Q) hey, is activation at 30 µM for this one >= 80%? COc1cccc2[nH]c(Br)c(CCN3CCCC3CO)c12 (stereo not drawn)
A) t

Q) hey, is activation at 30 µM for this one >= 80%? "COc1ccc2[nH]cc(CCN3CCC[C@H]3CO)c2c1"
A) t

Q) hey, is activation at 30 µM for this one >= 80%? "CCOC(=O)[C@@H]1CCCN1CCc1c[nH]c2ccccc12"
A) t

Q) hey, is activation at 30 µM for this one >= 80%? OCC1CCCN1CCc1c[nH]c2ccccc12 (stereo not drawn)
A) t

Q) hey, is activation at 30 µM for this one >= 80%? COc1ccc2[nH]c(Br)c(CCN3CCCC3CO)c2c1 (stereo not drawn)
A) f

Q) hey, is activation at 30 µM for this one >= 80%? "CC(C)OC(=O)[C@@H]1CCCN1CCc1c[nH]c2ccccc12"
A) t

Q) hey, is activation at 30 µM for this one >= 80%? "OC[C@@H]1CCN1CCc1c[nH]c2ccccc12"
A) t
